Tested on: Rattus norvegicus
Experiment: Metabolic epimerization in Sprague-Dawley rat assessed as formation of [R]-2-((1S,2S,4R)-bicyclo[2.2.1]heptan-2-ylamino)-5-5iospropylthiazol-4(5H)-one at 10 mg/kg, po up to 24 hrs by LC-MS/MS analysis
Assay type: ADME, organism-based
Parameters: dose 10 mg/kg, route oral
Details: in vivo
MEASUREMENT KIND: Activity (%)
Please state the figure in %; there is no need to write the unit.

So what does the record say about Activity for `CC(C)[C@@H]1SC(N[C@H]2C[C@@H]3CC[C@H]2C3)=NC1=O` ?
39

----------
Experiment: Bioavailability in Beagle dog at 3 mg/kg, iv or 10 mg/kg, po
Conditions: in vivo
MEASUREMENT KIND: bioavailability (%)
Your answer is read as %, so omit the unit and give the number.

# input compound: `CC(C)[C@]1(C)SC(N[C@H]2C[C@@H]3CC[C@H]2C3)=NC1=O` ; wanted: its bioavailability
50
